Tested on: BaF3
Experiment: Antiproliferative activity against mouse Ba/F3 cells expressing FLT3-ITD F691L mutant incubated for 48 hrs by CCK8 assay
Type: functional, cell-based
Details: BaF3, 48 h
ASSAY METRIC: IC50 (nM)
A number alone suffices; assume nM.

Exercise: Reported IC50 for Cc1c(NC(=O)CN2CCN(CC3CCN(c4ccc5c(c4)C(=O)N(C4CCC(=O)NC4=O)C5=O)CC3)CC2)c[nH]c1/C=C1\C(=O)Nc2ccc(F)cc21 (stereo unspecified) : what is it?
Solution: 66.2

###

Target: Cytochrome P450 2C8 (Homo sapiens)
Sequence (P10632 whole entry): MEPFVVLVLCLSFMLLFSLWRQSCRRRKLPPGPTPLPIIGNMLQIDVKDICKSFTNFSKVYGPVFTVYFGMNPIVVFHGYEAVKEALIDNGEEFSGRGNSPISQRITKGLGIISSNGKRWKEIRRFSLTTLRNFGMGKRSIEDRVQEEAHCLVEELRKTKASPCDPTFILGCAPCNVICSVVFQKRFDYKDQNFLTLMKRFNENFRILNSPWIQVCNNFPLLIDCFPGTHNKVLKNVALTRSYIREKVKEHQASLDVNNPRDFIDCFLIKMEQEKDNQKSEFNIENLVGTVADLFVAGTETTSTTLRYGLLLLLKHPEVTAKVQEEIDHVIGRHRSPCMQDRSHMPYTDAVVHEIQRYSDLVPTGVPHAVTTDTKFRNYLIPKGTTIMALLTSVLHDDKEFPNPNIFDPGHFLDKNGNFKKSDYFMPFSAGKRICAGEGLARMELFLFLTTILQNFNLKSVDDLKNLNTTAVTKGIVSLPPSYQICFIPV
pIC50: −log10 of the molar value.
ASSAY METRIC: pIC50

Exercise: Please provide the recorded pIC50 for Cc1c(NC(=O)CN2CCN(CC3CCN(c4ccc5c(c4)C(=O)N(C4CCC(=O)NC4=O)C5=O)CC3)CC2)c[nH]c1/C=C1\C(=O)Nc2ccc(F)cc21 (stereo unspecified) , tested on Cytochrome P450 2C8 (Homo sapiens).
Solution: < 4.30
